Where do these numbers come from? They come from ChEMBL document CHEMBL5154787.

Exercise: state measured IC50 for each of the molecules provided.
Target: BMP-2-inducible protein kinase (Homo sapiens)
Sequence (Q9NSY1 whole entry): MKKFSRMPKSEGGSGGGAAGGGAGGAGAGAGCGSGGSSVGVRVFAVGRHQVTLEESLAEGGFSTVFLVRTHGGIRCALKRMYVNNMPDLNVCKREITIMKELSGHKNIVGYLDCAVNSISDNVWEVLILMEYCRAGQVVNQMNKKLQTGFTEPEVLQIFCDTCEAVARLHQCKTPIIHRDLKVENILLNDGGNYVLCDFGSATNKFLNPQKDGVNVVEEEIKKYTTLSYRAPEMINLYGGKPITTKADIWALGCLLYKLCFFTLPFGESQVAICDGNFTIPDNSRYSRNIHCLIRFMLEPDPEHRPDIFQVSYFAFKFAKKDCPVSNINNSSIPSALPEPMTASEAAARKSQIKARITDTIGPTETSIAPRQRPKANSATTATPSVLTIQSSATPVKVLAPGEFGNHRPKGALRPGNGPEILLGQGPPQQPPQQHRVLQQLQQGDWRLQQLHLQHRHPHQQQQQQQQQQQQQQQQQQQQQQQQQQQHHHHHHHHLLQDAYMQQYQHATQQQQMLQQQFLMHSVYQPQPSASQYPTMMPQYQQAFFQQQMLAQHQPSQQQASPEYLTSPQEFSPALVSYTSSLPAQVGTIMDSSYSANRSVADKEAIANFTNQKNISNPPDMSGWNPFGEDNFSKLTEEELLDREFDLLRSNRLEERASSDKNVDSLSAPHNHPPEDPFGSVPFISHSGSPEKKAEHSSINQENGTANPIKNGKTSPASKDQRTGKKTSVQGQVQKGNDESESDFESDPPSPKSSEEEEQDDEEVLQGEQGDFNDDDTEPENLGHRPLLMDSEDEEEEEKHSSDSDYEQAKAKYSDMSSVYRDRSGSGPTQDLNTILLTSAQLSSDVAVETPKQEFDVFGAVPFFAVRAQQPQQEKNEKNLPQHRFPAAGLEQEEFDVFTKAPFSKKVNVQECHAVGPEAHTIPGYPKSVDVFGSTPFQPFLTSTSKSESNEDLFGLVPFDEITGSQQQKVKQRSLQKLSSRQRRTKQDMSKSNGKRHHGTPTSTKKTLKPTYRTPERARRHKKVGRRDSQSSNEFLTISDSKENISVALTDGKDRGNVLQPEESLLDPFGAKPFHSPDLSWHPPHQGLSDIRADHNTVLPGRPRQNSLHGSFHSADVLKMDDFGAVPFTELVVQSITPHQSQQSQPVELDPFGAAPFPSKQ
A bare number is not enough; add the unit after it.

[[record]]
cpd_smiles = "COC(=O)Nc1cc(-c2ccc(OC[C@@](C)(N)CC(C)C)c(Cl)n2)ccn1"
target_of_assay = "BMP-2-inducible protein kinase (Homo sapiens)"
value_observed = "30 nM"

[[record]]
cpd_smiles = "Cc1cc(-c2cc(Cl)c(OC[C@@](C)(N)CC(C)C)cn2)ccn1"
target_of_assay = "BMP-2-inducible protein kinase (Homo sapiens)"
value_observed = "1500 nM"

[[record]]
cpd_smiles = "Cc1cc(-c2cc(C(F)F)c(OC[C@@](C)(N)CC(C)C)cn2)ccn1"
target_of_assay = "BMP-2-inducible protein kinase (Homo sapiens)"
value_observed = "180 nM"

[[record]]
cpd_smiles = "COC(=O)Nc1cc(-c2cnc(OC[C@@](C)(N)CC(C)C)c(Cl)c2)ccn1"
target_of_assay = "BMP-2-inducible protein kinase (Homo sapiens)"
value_observed = "6 nM"


Now for a further molecule.
What value of IC50 has been recorded for this entry: CC(C)C[C@](C)(N)COc1cnc(-c2ccnc(C(F)F)c2)cc1C(F)F 180 nM

###

Assay: Plasma concentration in CCI induced thermal hyperalgesia in Sprague-Dawley rat at 3 mg/kg, po measured at 5.5 hrs post dose
Type: ADME, organism-based
result_type: concentration at 5.5 h (nM)
Numbers only, in nM.

What value of concentration at 5.5 h has been recorded for this entry: CC(C)C[C@](C)(N)COc1cnc(-c2ccnc(C(F)F)c2)cc1C(F)F 29

###

Target: Dual specificity mitogen-activated protein kinase kinase 1 (Homo sapiens)
Assay: Inhibition of MEK1/MAP2K1 (unknown origin)
result_type: pIC50
Give bare numbers, as −log10 of the molar value.

What value of pIC50 has been recorded for this entry: COC(=O)Nc1cc(-c2ccc(OC[C@@](C)(N)CC(C)C)c(Cl)n2)ccn1 5.92

###

Test: Ratio of drug concentration in brain to plasma in CCI induced thermal hyperalgesia in Sprague-Dawley rat at 1 mg/kg, po measured at 5.5 hrs post dose
Type: ADME, organism-based
result_type: Kp at 5.5 h
Numbers only.

What value of Kp at 5.5 h has been recorded for this entry: CC(=O)Nc1cc(-c2ccc(OC[C@@H](N)CC(C)C)c(F)c2)ccn1 1.2

###

Test: Solubility of compound at pH 5 measured after 24 hrs
Assay type: physicochemical
Conditions: buffer
result_type: solubility at 24 h

What value of solubility at 24 h has been recorded for this entry: COC(=O)Nc1cc(-c2ccc(OC[C@@](C)(N)CC(C)C)c(C)n2)ccn1 > 1000 µg/mL

###

Assay: Drug concentration in STZ-induced diabetic peripheral neuropathic mechanical allodynia in overnight fasted Sprague-Dawley rat spinal cord at 1 mg/kg, po measured after 5.5 hrs
Format: ADME, organism-based
Conditions: read-out: Ct
result_type: concentration at 5.5 h (nM)
Give bare numbers, in nM.

What value of concentration at 5.5 h has been recorded for this entry: CC(=O)Nc1cc(-c2ccc(OC[C@@H](N)CC(C)C)c(F)c2)ccn1 150

###

Exercise: state measured pIC50 for each of the molecules provided.
Target: Cytochrome P450 3A4 (Homo sapiens, UniProt P08684)
Sequence (P08684 whole entry): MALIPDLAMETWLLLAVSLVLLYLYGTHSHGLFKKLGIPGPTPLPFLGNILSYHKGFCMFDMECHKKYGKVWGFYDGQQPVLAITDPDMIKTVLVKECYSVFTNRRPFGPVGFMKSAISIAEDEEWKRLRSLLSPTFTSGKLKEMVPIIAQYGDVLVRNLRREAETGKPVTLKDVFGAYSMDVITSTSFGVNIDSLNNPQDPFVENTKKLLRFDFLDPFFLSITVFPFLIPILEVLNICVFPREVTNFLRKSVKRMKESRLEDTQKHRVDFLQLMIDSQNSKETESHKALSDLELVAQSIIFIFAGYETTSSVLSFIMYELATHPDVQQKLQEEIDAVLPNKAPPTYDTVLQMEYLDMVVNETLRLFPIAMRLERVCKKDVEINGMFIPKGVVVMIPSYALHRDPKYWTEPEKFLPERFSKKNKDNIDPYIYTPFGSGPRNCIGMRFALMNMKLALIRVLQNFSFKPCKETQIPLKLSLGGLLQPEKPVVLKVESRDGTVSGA
Assay: Time dependent inhibition of […] (unknown origin) using BFC as substrate incubated for 30 mins in presence of NADPH by LC-MS/MS analysis
Assay type: ADME
pIC50: −log10 of the molar value.

[[record]]
cpd_smiles = "CC(C)C[C@](C)(N)COc1cnc(-c2ccnc(C(F)F)c2)cc1C(F)F"
value_observed = "< 4.70"


What value of pIC50 has been recorded for this entry: COC(=O)Nc1cc(-c2cnc(OC[C@@](C)(N)CC(C)C)c(C)c2)ccn1 < 4.70

###

Target: Citron Rho-interacting kinase (Homo sapiens)
Sequence (O14578 whole entry): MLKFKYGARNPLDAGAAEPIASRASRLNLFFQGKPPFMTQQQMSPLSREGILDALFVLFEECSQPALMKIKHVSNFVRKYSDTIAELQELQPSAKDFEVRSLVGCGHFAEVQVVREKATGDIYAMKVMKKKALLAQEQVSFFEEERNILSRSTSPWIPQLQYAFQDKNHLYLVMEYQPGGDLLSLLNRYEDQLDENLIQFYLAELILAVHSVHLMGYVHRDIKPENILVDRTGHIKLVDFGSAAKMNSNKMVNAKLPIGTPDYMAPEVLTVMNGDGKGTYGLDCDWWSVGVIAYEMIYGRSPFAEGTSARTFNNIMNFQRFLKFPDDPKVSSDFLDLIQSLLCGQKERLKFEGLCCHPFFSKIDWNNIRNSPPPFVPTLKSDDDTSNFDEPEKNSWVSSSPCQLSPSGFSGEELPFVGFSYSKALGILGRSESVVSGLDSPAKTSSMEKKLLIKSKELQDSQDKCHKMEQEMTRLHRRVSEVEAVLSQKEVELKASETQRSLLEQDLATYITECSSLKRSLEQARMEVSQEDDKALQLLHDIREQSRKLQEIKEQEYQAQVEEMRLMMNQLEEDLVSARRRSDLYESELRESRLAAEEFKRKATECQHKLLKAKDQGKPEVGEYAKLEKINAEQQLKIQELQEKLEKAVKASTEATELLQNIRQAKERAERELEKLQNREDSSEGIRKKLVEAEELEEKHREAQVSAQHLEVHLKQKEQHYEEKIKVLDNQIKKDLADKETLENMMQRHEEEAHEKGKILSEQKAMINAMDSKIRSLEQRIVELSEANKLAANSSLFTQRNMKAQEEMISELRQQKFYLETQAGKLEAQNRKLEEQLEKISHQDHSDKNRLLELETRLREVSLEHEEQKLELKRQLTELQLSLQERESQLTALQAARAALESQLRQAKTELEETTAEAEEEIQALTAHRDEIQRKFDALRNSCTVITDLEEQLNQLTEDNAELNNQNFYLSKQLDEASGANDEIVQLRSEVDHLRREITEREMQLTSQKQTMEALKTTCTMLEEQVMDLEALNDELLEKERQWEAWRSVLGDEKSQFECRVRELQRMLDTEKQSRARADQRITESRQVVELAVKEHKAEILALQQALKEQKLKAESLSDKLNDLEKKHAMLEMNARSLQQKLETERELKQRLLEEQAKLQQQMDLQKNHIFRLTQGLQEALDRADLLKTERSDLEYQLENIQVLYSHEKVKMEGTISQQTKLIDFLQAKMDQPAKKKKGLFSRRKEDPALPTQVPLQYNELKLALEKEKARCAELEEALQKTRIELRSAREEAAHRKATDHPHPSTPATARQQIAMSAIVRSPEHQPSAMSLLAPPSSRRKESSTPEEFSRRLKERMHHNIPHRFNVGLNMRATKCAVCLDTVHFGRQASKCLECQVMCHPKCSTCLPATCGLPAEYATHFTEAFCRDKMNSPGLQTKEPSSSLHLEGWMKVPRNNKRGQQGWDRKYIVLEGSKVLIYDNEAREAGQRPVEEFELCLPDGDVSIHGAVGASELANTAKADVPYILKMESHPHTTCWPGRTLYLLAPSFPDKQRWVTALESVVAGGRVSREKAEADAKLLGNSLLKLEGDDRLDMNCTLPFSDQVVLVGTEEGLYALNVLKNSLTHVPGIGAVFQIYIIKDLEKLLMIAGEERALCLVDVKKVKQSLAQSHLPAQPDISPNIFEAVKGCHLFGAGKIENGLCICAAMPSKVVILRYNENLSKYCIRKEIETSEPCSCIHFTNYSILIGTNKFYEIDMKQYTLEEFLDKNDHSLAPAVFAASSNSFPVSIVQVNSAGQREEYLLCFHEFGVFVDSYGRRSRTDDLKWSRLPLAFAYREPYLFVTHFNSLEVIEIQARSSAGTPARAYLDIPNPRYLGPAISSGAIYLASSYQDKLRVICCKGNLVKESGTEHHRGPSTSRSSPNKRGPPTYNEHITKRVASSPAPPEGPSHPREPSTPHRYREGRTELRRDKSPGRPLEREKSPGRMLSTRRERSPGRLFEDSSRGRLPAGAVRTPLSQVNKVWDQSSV
Experiment: Inhibition of CRIK (unknown origin)
result_type: IC50 (nM)
Give bare numbers, in nM.

Example entries begin here.
[[record]]
cpd_smiles = "Cc1cc(-c2cc(C(F)F)c(OC[C@@](C)(N)CC(C)C)cn2)ccn1"
unit_spec = "nM"
value_observed = 750

[[record]]
cpd_smiles = "COC(=O)Nc1cc(-c2cc(C)c(OC[C@@](C)(N)CC(C)C)cn2)ccn1"
unit_spec = "nM"
value_observed = 60

[[record]]
cpd_smiles = "Cc1cc(-c2cc(Cl)c(OC[C@@](C)(N)CC(C)C)cn2)ccn1"
unit_spec = "nM"
value_observed = 1300


Now for a further molecule.
What value of IC50 has been recorded for this entry: COC(=O)Nc1cc(-c2ccc(OC[C@@](C)(N)CC(C)C)c(Cl)n2)ccn1 90

###

Assay: Solubility of compound at pH 1 measured after 24 hrs
Format: physicochemical
Conditions: buffer
result_type: solubility at 24 h

What value of solubility at 24 h has been recorded for this entry: COC(=O)Nc1cc(-c2ccc(OC[C@@](C)(N)CC(C)C)c(C)n2)ccn1 > 1 mg/mL

###

Exercise: state measured half-life at 0.5 µM for each of the compounds provided.
Test: Metabolic stability in cynomolgus monkey liver microsomes assessed as half life incubated at 0.5 uM for 10 mins in presence of NADPH by LC-MS/MS analysis
Format: ADME, Macaca fascicularis, Microsome
Give bare numbers, in min.

Could I get half-life at 0.5 µM for every one of these entries?
1. COC(=O)Nc1cc(-c2ccc(OC[C@@](C)(N)CC(C)C)c(C)n2)ccn1
2. COC(=O)Nc1cc(-c2cnc(OC[C@@](C)(N)CC(C)C)c(C)c2)ccn1
3. CC(C)C[C@](C)(N)COc1cnc(-c2ccnc(C(F)F)c2)cc1C(F)F

[51, 77, 17.6]

###

Please consider the recorded IC50 for Death-associated protein kinase 1 (Homo sapiens, UniProt P53355) in what follows.
One number for each entry, in nM.

Example entries begin here.
[[record]]
cpd_smiles = "COC(=O)Nc1cc(-c2ccc(OC[C@@](C)(N)CC(C)C)c(C)n2)ccn1"
value_observed = 1400

[[record]]
cpd_smiles = "COC(=O)Nc1cc(-c2ccc(OC[C@@](C)(N)CC(C)C)c(Cl)n2)ccn1"
value_observed = 810


Now for a further molecule.
What value of IC50 has been recorded for this entry: COC(=O)Nc1cc(-c2ccc(OC[C@@](C)(N)CC(C)C)c(C(F)F)n2)ccn1 560

###

Assay: Metabolic stability in mouse liver microsomes assessed as half life incubated at 0.5 uM for 10 mins in presence of NADPH by LC-MS/MS analysis
Type: ADME, Microsome
Conditions: liver microsomes
result_type: half-life at 0.5 µM (h)
Give bare numbers, in h.

What value of half-life at 0.5 µM has been recorded for this entry: COC(=O)Nc1cc(-c2ccc(OC[C@@](C)(N)CC(C)C)c(C)n2)ccn1 1.53

###

Target: Cyclin-G-associated kinase (Homo sapiens, UniProt O14976)
Sequence (O14976 whole entry): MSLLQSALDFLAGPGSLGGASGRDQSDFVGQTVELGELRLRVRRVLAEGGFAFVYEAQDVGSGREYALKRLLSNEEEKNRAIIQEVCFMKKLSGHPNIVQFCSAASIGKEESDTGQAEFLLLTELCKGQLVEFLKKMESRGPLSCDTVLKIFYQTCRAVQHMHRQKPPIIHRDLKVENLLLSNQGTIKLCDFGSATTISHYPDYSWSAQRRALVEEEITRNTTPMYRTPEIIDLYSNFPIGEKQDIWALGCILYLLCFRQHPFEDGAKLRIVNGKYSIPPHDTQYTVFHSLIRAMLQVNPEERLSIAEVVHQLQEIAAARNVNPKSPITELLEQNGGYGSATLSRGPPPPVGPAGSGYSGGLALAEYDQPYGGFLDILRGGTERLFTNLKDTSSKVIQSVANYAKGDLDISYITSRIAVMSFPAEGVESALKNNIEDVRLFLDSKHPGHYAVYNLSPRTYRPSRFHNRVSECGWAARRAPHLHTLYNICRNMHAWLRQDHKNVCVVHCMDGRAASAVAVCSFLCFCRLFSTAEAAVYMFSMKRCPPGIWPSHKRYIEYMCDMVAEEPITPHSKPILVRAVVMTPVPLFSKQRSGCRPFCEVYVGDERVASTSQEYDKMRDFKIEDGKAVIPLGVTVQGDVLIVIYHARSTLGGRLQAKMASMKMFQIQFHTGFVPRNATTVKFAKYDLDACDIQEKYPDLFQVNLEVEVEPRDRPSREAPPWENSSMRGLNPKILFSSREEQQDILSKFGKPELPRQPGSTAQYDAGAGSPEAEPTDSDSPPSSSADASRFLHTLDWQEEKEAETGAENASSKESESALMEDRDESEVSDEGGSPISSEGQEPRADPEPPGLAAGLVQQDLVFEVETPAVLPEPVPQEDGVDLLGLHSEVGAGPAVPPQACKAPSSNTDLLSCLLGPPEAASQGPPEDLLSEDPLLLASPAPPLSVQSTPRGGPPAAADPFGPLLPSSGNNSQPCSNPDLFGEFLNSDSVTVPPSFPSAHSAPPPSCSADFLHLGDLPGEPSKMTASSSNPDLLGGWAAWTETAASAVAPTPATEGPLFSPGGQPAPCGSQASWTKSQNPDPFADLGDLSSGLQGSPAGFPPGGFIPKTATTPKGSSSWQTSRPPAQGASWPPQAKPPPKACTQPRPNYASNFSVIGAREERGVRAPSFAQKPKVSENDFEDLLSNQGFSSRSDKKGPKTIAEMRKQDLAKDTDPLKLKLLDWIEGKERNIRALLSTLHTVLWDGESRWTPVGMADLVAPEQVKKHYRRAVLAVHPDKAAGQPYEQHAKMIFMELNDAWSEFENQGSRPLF
Exercise: state measured pIC50 for each of the compounds provided.
One number for each entry, as −log10 of the molar value.

[[record]]
cpd_smiles = "COC(=O)Nc1cc(-c2cc(C)c(OC[C@@](C)(N)CC(C)C)cn2)ccn1"
target_of_assay = "Cyclin-G-associated kinase (Homo sapiens, UniProt O14976)"
result_type = "pIC50"
value_observed = 5.74


Now for a further compound.
What value of pIC50 has been recorded for this entry: COC(=O)Nc1cc(-c2cnc(OC[C@@](C)(N)CC(C)C)c(C)c2)ccn1 6.36

###

Assay: Permeability of compound at pH 7.4 incubated for 4 hrs by PAMPA assay
Type: ADME
Settings: read-out: permeability
Exercise: state measured Papp at 4 h for each of the compounds provided.
Numbers only, in ×10⁻⁶ cm/s.

Example entries begin here.
[[record]]
cpd_smiles = "CC(C)C[C@](C)(N)COc1cnc(-c2ccnc(C(F)F)c2)cc1C(F)F"
value_observed = 45.8

[[record]]
cpd_smiles = "COC(=O)Nc1cc(-c2ccc(OC[C@@](C)(N)CC(C)C)c(C)n2)ccn1"
value_observed = 86.4


What value of Papp at 4 h has been recorded for this entry: COC(=O)Nc1cc(-c2cnc(OC[C@@](C)(N)CC(C)C)c(C)c2)ccn1 69.7

###

Exercise: state measured pIC50 for each of the molecules provided.
Molecular target: Cytochrome P450 3A4 (Homo sapiens, UniProt P08684)
Assay: Inhibition of CYP3A4 (unknown origin) incubated for 10 mins in presence of NADPH by LC-MS/MS analysis
Format: ADME
Answers are plain numbers, as −log10 of the molar value.

[[record]]
molecule = "CC(=O)Nc1cc(-c2ccc(OC[C@@H](N)CC(C)C)c(F)c2)ccn1"
value_observed = 5.05

[[record]]
molecule = "CC(=O)Nc1cc(-c2ccc(OC[C@@H](N)CC(C)C)c(Cl)c2)ccn1"
value_observed = 5.59

[[record]]
molecule = "CC(=O)Nc1cc(-c2ccc(OC[C@@](C)(N)CC(C)C)c(C(F)(F)F)c2)ccn1"
value_observed = 4.85

[[record]]
molecule = "COC(=O)Nc1cc(-c2ccc(OC[C@@H](N)CC(C)C)c(F)c2)ccn1"
value_observed = 5.68


Could I get pIC50 for every one of these entries?
1. COC(=O)Nc1cc(-c2ccc(OC[C@@](C)(N)CC(C)C)c(Cl)c2)ccn1 (racemic)
2. COC(=O)Nc1cc(-c2ccc(OC[C@@](C)(N)CC(C)C)c(C#N)c2)ccn1

[6.13, 4.89]
